meta.source: PubChem BioAssay (NCI)

system: U251 CNS; assay: NCI tumour cell line growth inhibition, 48 h

[
  {
    "compound": "COc1ccc([Se]c2ccc(OC)cc2)cc1",
    "assay-target": "U251 CNS",
    "relation-qualifier": ">",
    "TGI, µM": 100
  },
  {
    "compound": "CCC(=O)Oc1ccc(/C=N/NC(N)=S)nc1",
    "assay-target": "U251 CNS",
    "relation-qualifier": ">",
    "TGI, µM": 100
  },
  {
    "compound": "O=S1Cc2ccccc2CSS1 (stereo not given)",
    "assay-target": "U251 CNS",
    "relation-qualifier": "=",
    "TGI, µM": 31.9
  },
  {
    "compound": "COC(=O)C(Cc1ccccc1)N=Cc1c(O)c(O)c(C(C)C)c2cc(C)c(-c3c(C)cc4c(C(C)C)c(O)c(O)c(C=NC(Cc5ccccc5)C(=O)OC)c4c3O)c(O)c12 (stereo not given)",
    "assay-target": "U251 CNS",
    "relation-qualifier": "=",
    "TGI, µM": 55.2
  },
  {
    "compound": "CC1(C)O[C@@H](CP(c2ccc3ccccc3c2)c2ccc3ccccc3c2)[C@H](CP(c2ccc3ccccc3c2)c2ccc3ccccc3c2)O1",
    "assay-target": "U251 CNS",
    "relation-qualifier": ">",
    "TGI, µM": 100
  }
]

* * *

tested on: HOP-62 NSCLC; assay: NCI tumour cell line growth inhibition, 48 h
Each entry below carries its reported TGI.

[
  {
    "compound": "NC(=O)N=Nc1c2ccccc2n2[nH]ccc12",
    "TGI": "> 100 µM"
  },
  {
    "compound": "CCC(=O)Oc1ccc(/C=N/NC(N)=S)nc1",
    "TGI": "82.3 µM"
  },
  {
    "compound": "COC(=O)C(C(=O)C(=O)Nc1ccc(N)cc1[N+](=O)[O-])c1nc2ccc(Cl)cc2[nH]c1=O (stereo not given)",
    "TGI": "> 100 µM"
  },
  {
    "compound": "C=[N+](CNC(=O)CNC(=O)C(Cc1ccccc1)NC(=O)OC(C)(C)C)C(=O)CNC(=O)C(Cc1ccccc1)NC(=O)OC(C)(C)C (stereo not given)",
    "TGI": "> 100 µM"
  },
  {
    "compound": "COc1ccc(S(=O)(=O)N/N=C/CN2C(=O)c3ccccc3C2=O)cc1",
    "TGI": "> 100 µM"
  }
]

* * *

system: UO-31 renal; assay: NCI tumour cell line growth inhibition, 48 h

[
  {
    "smiles": "CC(=O)O[C@@H]1CN(S(=O)(=O)c2ccc(C)cc2)C[C@@H]1C1CCCCC1",
    "relation-qualifier": ">",
    "TGI, µM": 100
  },
  {
    "smiles": "CSc1nc(-c2cccc(NC(=O)CCl)c2)c(C#N)c(=O)n1C",
    "relation-qualifier": "=",
    "TGI, µM": 2.82
  },
  {
    "smiles": "O=C(OCc1ccccc1)c1ccccc1-c1c2ccc(=O)cc-2oc2cc(OCc3ccccc3)ccc12",
    "relation-qualifier": "=",
    "TGI, µM": 55.3
  },
  {
    "smiles": "O[C@H]1[C@@H]2OC[C@@H](O)[C@H](OCc3ccccc3)[C@@](COCc3ccccc3)(O2)[C@@H]1OCc1ccccc1",
    "relation-qualifier": "=",
    "TGI, µM": 30.6
  }
]
